- System: Blood
- assay_text: Biodistribution in ICR mouse blood at 5 to 10 uCi, iv after 2 hrs
- Assay type: ADME, organism-based
- measurement_context: in vivo
assay_metric: Drug uptake (% ID/g)

{"columns": ["chem_smiles", "Drug uptake (% ID/g)"],
 "data": [
  ["CN(C)c1ccc(C#Cc2ccc(OCCOCCOCC[18F])cc2)cc1", 2.35],
  ["CN(C)c1ccc(C#Cc2ccc(OCCOCC[18F])cc2)cc1", 5.17]
]}

(A) CNc1ccc(C#Cc2ccc(OCCOCCOCC[18F])cc2)cc1
(B) CNc1ccc(C#Cc2ccc(OCCOCC[18F])cc2)cc1
I'm curious whether A or B has the smaller Drug uptake number. Which is it? Pick one; state its label.
A

----------
- System: Kidney
- assay_text: Biodistribution in ICR mouse kidney at 5 to 10 uCi, iv after 30 mins
- Assay type: ADME, organism-based
- measurement_context: in vivo, 0.5 h
assay_metric: Drug uptake (% ID/g)

Example cases with answers are listed next.
{"columns": ["chem_smiles", "Drug uptake (% ID/g)"],
 "data": [
  ["CNc1ccc(C#Cc2ccc(OCCOCCOCC[18F])cc2)cc1", 2.9],
  ["CN(C)c1ccc(C#Cc2ccc(OCCOCC[18F])cc2)cc1", 4.75]
]}

(P) CNc1ccc(C#Cc2ccc(OCCOCC[18F])cc2)cc1
(Q) CN(C)c1ccc(C#Cc2ccc(OCCOCCOCC[18F])cc2)cc1
Hey, which is lower on measured Drug uptake, P or Q ? I would appreciate it if you answered with the label of your choice.
Q

----------
- System: Lung
- assay_text: Biodistribution in ICR mouse lung at 5 to 10 uCi, iv after 2 hrs
- Type: ADME, organism-based
- measurement_context: in vivo
assay_metric: Drug uptake (% ID/g)

{"columns": ["chem_smiles", "Drug uptake, % ID/g"],
 "data": [
  ["CNc1ccc(C#Cc2ccc(OCCOCC[18F])cc2)cc1", 4.67]
]}

(P) CNc1ccc(C#Cc2ccc(OCCOCCOCC[18F])cc2)cc1
(Q) CN(C)c1ccc(C#Cc2ccc(OCCOCC[18F])cc2)cc1
Pick one: P or Q . Which has the bigger Drug uptake number? // caller expects the label of the chosen entry
Q

----------
- Tested on: Blood
- assay_text: Biodistribution in ICR mouse blood at 5 to 10 uCi, iv after 2 mins
- Type: ADME, organism-based
- measurement_context: in vivo
assay_metric: Drug uptake (% ID/g)

{"columns": ["chem_smiles", "Drug uptake (% ID/g)"],
 "data": [
  ["CN(C)c1ccc(C#Cc2ccc(OCCOCCOCC[18F])cc2)cc1", 5.72],
  ["CN(C)c1ccc(C#Cc2ccc(OCCOCC[18F])cc2)cc1", 7.33]
]}

(A) CNc1ccc(C#Cc2ccc(OCCOCCOCC[18F])cc2)cc1
(B) CNc1ccc(C#Cc2ccc(OCCOCC[18F])cc2)cc1
Name the one with the greater Drug uptake value, either A or B as given. Respond with the label that goes with your answer.
B

----------
- System: Brain
- assay_text: Biodistribution in ICR mouse brain at 5 to 10 uCi, iv after 1 hr
- Assay type: ADME, organism-based
- measurement_context: in vivo
assay_metric: Drug uptake (% ID/g)

{"columns": ["chem_smiles", "Drug uptake, % ID/g"],
 "data": [
  ["CNc1ccc(C#Cc2ccc(OCCOCC[18F])cc2)cc1", 0.99]
]}

(I) CNc1ccc(C#Cc2ccc(OCCOCCOCC[18F])cc2)cc1
(II) CN(C)c1ccc(C#Cc2ccc(OCCOCCOCC[18F])cc2)cc1
(III) CN(C)c1ccc(C#Cc2ccc(OCCOCC[18F])cc2)cc1
Output the entries ranked by Drug uptake from maximum down to minimum. Lab note: final answer is the ordered label list.
III, II, I
(III: 2.06 % ID/g, II: 0.77 % ID/g, I: 0.37 % ID/g)

----------
- Test system: Muscle tissue
- assay_text: Biodistribution in ICR mouse muscle at 5 to 10 uCi, iv after 2 hrs
- Format: ADME, organism-based
- measurement_context: in vivo
assay_metric: Drug uptake (% ID/g)

(a) CNc1ccc(C#Cc2ccc(OCCOCC[18F])cc2)cc1
(b) CNc1ccc(C#Cc2ccc(OCCOCCOCC[18F])cc2)cc1
// pick min by Drug uptake: a , b Selection: enter the item's label.
b
(b: 0.39 % ID/g, a: 1.26 % ID/g)

(a) CN(C)c1ccc(C#Cc2ccc(OCCOCC[18F])cc2)cc1
(b) CN(C)c1ccc(C#Cc2ccc(OCCOCCOCC[18F])cc2)cc1
For the pair a and b , which member has the lower Drug uptake number? I would appreciate it if you answered with the label of your choice.
b
(b: 0.42 % ID/g, a: 1.03 % ID/g)

----------
- System: Liver
- assay_text: Biodistribution in ICR mouse liver at 5 to 10 uCi, iv after 30 mins
- Type: ADME, organism-based
- measurement_context: in vivo, 0.5 h
assay_metric: Drug uptake (% ID/g)

{"columns": ["chem_smiles", "value_unit", "Drug uptake"],
 "data": [
  ["CNc1ccc(C#Cc2ccc(OCCOCCOCC[18F])cc2)cc1", "% ID/g", 14.8],
  ["CN(C)c1ccc(C#Cc2ccc(OCCOCC[18F])cc2)cc1", "% ID/g", 11.2],
  ["CNc1ccc(C#Cc2ccc(OCCOCC[18F])cc2)cc1", "% ID/g", 18.3],
  ["CN(C)c1ccc(C#Cc2ccc(OCCOCCOCC[18F])cc2)cc1", "% ID/g", 13.8]
]}

----------
- System: Brain
- assay_text: Biodistribution in ICR mouse brain at 5 to 10 uCi, iv after 30 mins
- Format: ADME, organism-based
- measurement_context: in vivo, 0.5 h
assay_metric: Drug uptake (% ID/g)

Before answering, review these 2 worked examples.
{"columns": ["chem_smiles", "assay_metric", "value_unit", "val"],
 "data": [
  ["CNc1ccc(C#Cc2ccc(OCCOCC[18F])cc2)cc1", "Drug uptake", "% ID/g", 1.03],
  ["CNc1ccc(C#Cc2ccc(OCCOCCOCC[18F])cc2)cc1", "Drug uptake", "% ID/g", 0.42]
]}

(A) CN(C)c1ccc(C#Cc2ccc(OCCOCC[18F])cc2)cc1
(B) CN(C)c1ccc(C#Cc2ccc(OCCOCCOCC[18F])cc2)cc1
Choose between A and B : whose measured Drug uptake value is numerically larger? Returns: label corresponding to the selected item.
A
(A: 3.69 % ID/g, B: 1.57 % ID/g)

----------
- Test system: Liver
- assay_text: Biodistribution in ICR mouse liver at 5 to 10 uCi, iv after 2 mins
- Type: ADME, organism-based
- measurement_context: in vivo
assay_metric: Drug uptake (% ID/g)

# count of solved cases: 2
{"columns": ["chem_smiles", "value_unit", "Drug uptake"],
 "data": [
  ["CN(C)c1ccc(C#Cc2ccc(OCCOCCOCC[18F])cc2)cc1", "% ID/g", 23.2],
  ["CNc1ccc(C#Cc2ccc(OCCOCCOCC[18F])cc2)cc1", "% ID/g", 25.8]
]}

(P) CN(C)c1ccc(C#Cc2ccc(OCCOCC[18F])cc2)cc1
(Q) CNc1ccc(C#Cc2ccc(OCCOCC[18F])cc2)cc1
Out of P and Q , name the one with the higher Drug uptake. Response format: the label of the selected entry.
Q

----------
- Test system: Spleen
- assay_text: Biodistribution in ICR mouse spleen at 5 to 10 uCi, iv after 1 hr
- Type: ADME, organism-based
- measurement_context: in vivo
assay_metric: Drug uptake (% ID/g)

In the examples that follow, each entry is paired with its recorded Drug uptake.
{"columns": ["chem_smiles", "assay_metric", "value_unit", "val"],
 "data": [
  ["CNc1ccc(C#Cc2ccc(OCCOCC[18F])cc2)cc1", "Drug uptake", "% ID/g", 3.78],
  ["CNc1ccc(C#Cc2ccc(OCCOCCOCC[18F])cc2)cc1", "Drug uptake", "% ID/g", 0.95]
]}

(1) CN(C)c1ccc(C#Cc2ccc(OCCOCCOCC[18F])cc2)cc1
(2) CN(C)c1ccc(C#Cc2ccc(OCCOCC[18F])cc2)cc1
For the two items 1 and 2 , which reports the higher Drug uptake value? Your answer should be the label of the entry you select.
2

----------
- Tested on: Muscle tissue
- assay_text: Biodistribution in ICR mouse muscle at 5 to 10 uCi, iv after 1 hr
- Type: ADME, organism-based
- measurement_context: in vivo
assay_metric: Drug uptake (% ID/g)

The following compounds have reported results that may help.
{"columns": ["chem_smiles", "Drug uptake (% ID/g)"],
 "data": [
  ["CNc1ccc(C#Cc2ccc(OCCOCC[18F])cc2)cc1", 1.38],
  ["CNc1ccc(C#Cc2ccc(OCCOCCOCC[18F])cc2)cc1", 0.62]
]}

(a) CN(C)c1ccc(C#Cc2ccc(OCCOCCOCC[18F])cc2)cc1
(b) CN(C)c1ccc(C#Cc2ccc(OCCOCC[18F])cc2)cc1
From the recorded data, which exceeds the other in Drug uptake: a or b ? Your answer should be the label attached to the chosen record.
b

Attribution: ChEMBL document CHEMBL1139874
